Target: NHERF2_2, Q15599
Sequence (Q15599 142-238): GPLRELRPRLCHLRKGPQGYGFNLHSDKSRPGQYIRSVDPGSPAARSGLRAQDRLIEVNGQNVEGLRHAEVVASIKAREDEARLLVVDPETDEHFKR
Assay: holdup assay
Design: key: below the threshold = too weak to quantify, mostly under pKd 3.1 to 4
Settings: plain residues with an end cap or a label only (N-terminal biotin on a linker: ado-ado)
Measured attribute: pKd

DLLGGGSDSI [TNRC6B, Q9UPQ9] : below the threshold
STYCDYTIEI [FAM71C, Q8NEG0] : below the threshold
GDSSRKEYFI [GYPC, P04921] : below the threshold
